These entries and their values trace back to PubChem BioAssay (NCI).

Tested on: HL-60(TB) leukemia
Assay: NCI tumour cell line growth inhibition, 48 h
Measured endpoint: TGI

Consider the worked cases shown below.
CCOc1ccc2c(-c3ccnc(Nc4cccc(C(F)(F)F)c4)n3)cnn2n1; > 25 µM
COC(=O)c1c(C)cccc1C1CN=NC12Cc1c(C)cccc1C2=O (stereo not given); > 100 µM
Cn1c2nc(=Nc3ccc(Cl)cc3)n3ccc4ccccc4c3c2c(=O)n1-c1ccccc1; > 100 µM
Cc1ccc2c(c1)C(=O)C1(C2)Cc2ccc(C)cc2C1=O; > 100 µM

Query compound follows.
// query Fill in the blank: the reported TGI of COC(=O)C1=C(O)C(C(=O)OC)[C@@]2(O)[C@@H](C(=O)OC)C(c3ccc(OC(=O)/C(=C/c4ccccc4)c4ccccc4)cc3)C[C@@H]1[C@@H]2C(=O)OC (stereo not given in full) is ____.
// result > 100 µM

----------
System: CCRF-CEM leukemia
Experiment: NCI tumour cell line growth inhibition, 48 h
TGI values, listed per item

Consider the worked cases shown below.
CN(C)CCNc1ccc2nnn3c4ccc(Cl)cc4c(=O)c1c23; > 52.8 µM
S=C(NNC1=NCCCCN1)Nc1ccccc1; > 100 µM
O=C1c2ccccc2N2OC3C4CCC(C4)C3C12c1ccccc1 (centres undefined); > 100 µM
CCOP(=O)(C/C(=N/NC(C)(C)C)C(=O)Nc1nc2ccc(C)cc2s1)OCC; > 100 µM
CCC1N2CCCCC2[C@@H]2c3[nH]c4ccccc4c3CCN12 (some centres undefined); > 100 µM

// query Fill in the blank: the reported TGI of Cc1ccc2nc(NC(=O)CSC(=S)N3CCN(Cc4ccccc4)CC3)sc2c1 is ____.
// result > 100 µM

// query Next compound up: COC(=O)c1ccccc1C1CN=NC12Cc1c(C)c3c(c(C)c1C2=O)CCC3 (centres undefined)
// result > 100 µM

// query Next compound up: CNC(=O)OC(C)CN1c2ccccc2Sc2ccccc21 (centres undefined)
// result > 100 µM

// query Next compound up: Nc1nonc1-c1noc(-c2nonc2N)[n+]1[O-]
// result 32.8 µM

// query Next compound up: CN1NC(c2ccccc2)=C(C#N)C(=O)CC1c1ccccc1Cl (centres undefined)
// result > 100 µM

// query Next compound up: CC(C)(C)OC(=O)N(CCCn1c2c(c3ccccc3c1=O)C(=O)c1ccccc1-2)CCN(CCCn1c2c(c3ccccc3c1=O)C(=O)c1ccccc1-2)C(=O)OC(C)(C)C
// result > 50 µM

// query Next compound up: C=C(C)[C@@H]1CC[C@]2(c3ncc(C)o3)CC[C@]3(C)[C@H](CC[C@@H]4[C@@](C)(CCC#N)[C@H](C(=C)C)CC[C@]43C)[C@@H]12
// result 10.2 µM

// query Next compound up: CCOC(=O)C1=C(C)N2CCCOC2(C)C(C(=O)OC)C1c1cccc([N+](=O)[O-])c1 (centres undefined)
// result > 100 µM

// query Next compound up: COC(=O)/C=C\C1C(C(=O)OC)C2(C(=O)OC)CCC1(C(=O)OC)N2 (centres undefined)
// result 21.8 µM

// query Next compound up: C=C(C)[C@@H]1CC[C@]2(C)[C@H](CC=C3[C@@H]4CC(C)(C)CC[C@]4(C(=O)OC)CC[C@]32C)[C@@]1(C)CC/C(N)=N/O
// result 6.2 µM

// query Next compound up: COc1cccc2c1C(=O)c1c(O)c3c(c(O)c1C2=O)C[C@@](O)(C(=O)COC(=O)c1cccnc1)C[C@@H]3OC1CC(N)C(O)C(C)O1 (some centres undefined)
// result 1.19 µM

// query Next compound up: O=c1oc2ccccc2c(O)c1C(c1ccc([N+](=O)[O-])cc1)c1c(O)c2ccccc2oc1=O
// result > 100 µM

// query Next compound up: COc1ccc(-c2c(N)n(-c3cc(OC)cc(OC)c3)c(=O)c3cc([N+](=O)[O-])ccc23)cc1
// result > 100 µM

// query Next compound up: COC(=O)c1ccc(NCc2cc(O)c3ccccc3c2O)cc1
// result 16.3 µM

----------
Test system: NCI-H226 lung
Assay: NCI tumour cell line growth inhibition, 48 h
Measured endpoint: TGI (µM)
State the answer as a number, implicitly in µM.

Consider the worked cases shown below.
CC(=O)[CH-]C(=O)c1ccccc1.CC(=O)[CH-]C(=O)c1ccccc1.[O-]c1ccc(O)cc1.[O-]c1ccc(O)cc1.[Ti+4]; 34.6
COc1ccc(CNCCCN2C(=O)c3ccc4c5c(ccc(c35)C2=O)C(=O)N(CCCNCCCCNCCCN)C4=O)c(OC)c1OC; 16.4
C=C(C)[C@@H]1CC[C@]2(c3ncc(C)o3)CC[C@]3(C)[C@H](CC[C@@H]4[C@@](C)(CCC#N)[C@H](C(=C)C)CC[C@]43C)[C@@H]12; 14.5

// query Could you share what TGI was measured for Cc1cc(Cl)ccc1OCC(=O)Oc1c(Cl)c(Cl)c(Cl)c(Cl)c1Cl , tested on NCI-H226 lung?
// result 53.8

----------
Test system: SK-OV-3 ovarian
Assay: NCI tumour cell line growth inhibition, 48 h
Measured endpoint: TGI

// query Fill in the blank: the reported TGI of COc1ccc(C(=O)N=C2N(c3ccccc3)C(=Nc3ccccc3)C(=Nc3ccccc3)N2c2ccccc2)cc1 is ____.
// result > 100 µM

// query Next compound up: COC(=O)C1=C(O)C(C(=O)OC)[C@@]2(O)[C@@H](C(=O)OC)C(c3ccc(OC(=O)/C(=C/c4ccccc4)c4ccccc4)cc3)C[C@@H]1[C@@H]2C(=O)OC (stereo not given in full)
// result > 100 µM

----------
System: EKVX NSCLC
Test: NCI tumour cell line growth inhibition, 48 h
Measured endpoint: GI50

Consider the worked cases shown below.
CC(C)(C)OC(=O)N(CCCn1c2c(c3ccccc3c1=O)C(=O)c1ccccc1-2)CCN(CCCn1c2c(c3ccccc3c1=O)C(=O)c1ccccc1-2)C(=O)OC(C)(C)C; > 50 µM
CCOc1ccc2c(-c3ccnc(Nc4cccc(C(F)(F)F)c4)n3)cnn2n1; > 17.9 µM
COc1ccc(-n2nc(C)c3c(Nc4ccc(NC(=O)Nc5cc(C(F)(F)F)ccc5F)cc4)ncnc32)cc1; 2.25 µM

Query molecule follows.
// query Fill in the blank: the reported GI50 of COc1cccc(NC(=O)c2ccc(C(F)(F)F)nc2Nc2ccc(Cl)cc2C)c1 is ____.
// result 10.2 µM

----------
Test system: HOP-92 NSCLC
Assay: NCI tumour cell line growth inhibition, 48 h; in the data active means GI50 below about 0.43 µM; inactive means the rest
Tick one outcome: active, inactive

Take a look at these entries with their results.
C=C(C)[C@@H]1CC[C@]2(c3ncc(C)o3)CC[C@]3(C)[C@H](CC[C@@H]4[C@@](C)(CCC#N)[C@H](C(=C)C)CC[C@]43C)[C@@H]12; inactive
CC(=O)OC1CC(C)c2c1ncnc2N1CCN(C(=O)OC(C)(C)C)CC1 (stereo not drawn); inactive
Cn1c(-c2c(N)n(Cc3ccc(Cl)cc3)c3nc(C#N)c(C#N)nc23)nc2ccccc21; inactive
Cc1cc2cc(Oc3ccnc(Nc4cccc(CS(=O)(=O)NCCN(C)C)c4)n3)ccc2[nH]1; inactive
COc1cc2c(cc1O)CCN[C@@]21CS[C@H]2c3c(OC(C)=O)c(C)c4c(c3C(COC1=O)N1C2C2c3c(cc(C)c(OC)c3O)CC([C@@H]1O)N2C)OCO4 (stereo partly drawn); active

// query State the result this test recorded for COc1ccccc1NC(=O)N/C(N)=N/c1nc2ccccc2s1 .
// result inactive

// query Next compound up: O=C(Oc1ccccc1Cl)c1cccnc1Nc1ccnc(C(F)(F)F)c1
// result inactive

// query Next compound up: c1ccc(CN2CCC3(CC2)ONC2=NCCN23)cc1
// result inactive

// query Next compound up: COc1ccc(S(=O)(=O)N2CCCCC2)cc1NC(=O)c1[nH]c(C)c2c1CCCCC2=O
// result inactive

// query Next compound up: COc1ccc(/C=C2/CCOC2=O)cc1
// result inactive

// query Next compound up: CNC1=C(Br)C(=O)C2=C(C1=O)C1C3=C(C(=O)C=CC3=O)C2c2ccccc21 (stereo not drawn)
// result inactive

// query Next compound up: CCCCCCCCOC(=O)c1cc(O)c(O)c(O)c1
// result inactive

// query Next compound up: CCCCn1c(=O)c(/C=C/C(=O)/C=C/c2ccc(O)c(OC)c2)cc2ccc(Cl)cc21
// result inactive

----------
System: UACC-62 melanoma
Test: NCI tumour cell line growth inhibition, 48 h
Lab note: compare TGI against 30 µM. Equal or greater, write yes. Smaller, write no.

O=C(c1cccs1)N(C(=S)OCc1ccccn1)c1ccccc1; yes
O=c1oc2ccccc2c(O)c1C(c1ccc([N+](=O)[O-])cc1)c1c(O)c2ccccc2oc1=O; yes
C/C=C1/CN2CC[C@@H]3c4ccccc4N4[C@H](C(=O)OC)[C@H]1C[C@H]2[C@]34/C=C/C1=COC[C@@H]2[C@H]1C[C@H]1c3c(c4ccccc4n3C)C[C@@H]2N1C; no
COc1ccc(-c2c(N)n(-c3cc(OC)cc(OC)c3)c(=O)c3cc([N+](=O)[O-])ccc23)cc1; yes

// query Kindly determine if TGI recorded for CCCN(CCC)c1ccc(C=O)c(OC)c1 is above or exactly 30 µM.
// result yes

// query Next molecule up: COc1cccc(NC(=O)c2c(SC)n[nH]c2N)c1
// result yes

// query Next molecule up: CCCCC/C=C1\CCC(CN2CCOCC2)C1=O (stereo not given)
// result no

// query Next molecule up: COC(=O)/C1=C/C2CC(/C=C(/c3ccccc3)C(=O)O1)C2
// result yes

// query Next molecule up: CCOc1ccccc1N=NC1C(=O)N(C(=O)CC(=O)Nc2ccccc2Cl)N=C1C (stereo not given)
// result yes
